- TARGET_OR_TEST_SYSTEM: DCUN1D4_C219 (Homo sapiens, UniProt Q92564)
- Construct: endogenous in cells; host or cells: 22Rv1
- Sequence (Q92564 whole entry): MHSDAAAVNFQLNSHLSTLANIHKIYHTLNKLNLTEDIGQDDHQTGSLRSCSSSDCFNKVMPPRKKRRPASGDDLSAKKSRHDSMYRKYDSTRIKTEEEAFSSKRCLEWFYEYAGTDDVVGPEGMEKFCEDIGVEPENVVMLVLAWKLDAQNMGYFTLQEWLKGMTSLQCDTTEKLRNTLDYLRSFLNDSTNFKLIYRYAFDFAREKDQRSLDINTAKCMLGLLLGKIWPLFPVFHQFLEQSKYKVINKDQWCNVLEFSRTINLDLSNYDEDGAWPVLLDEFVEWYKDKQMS
- TEST_SUMMARY: IA-DTB cysteine engagement
- Assay type: binding
- EXPERIMENTAL_PARAMETERS: 22Rv1 cells, 20 μM probe, 1 h, relative to DMSO
MEASURED_ENDPOINT: % engagement DCUN1D4_C219 (%)

MOLECULE: C=CC(=O)N1C[C@H](c2ccc(Br)cc2)[C@H]1C(=O)Nc1cccc2cccnc12 [MY-3A]
TARGET_OR_TEST_SYSTEM: DCUN1D4_C219 (Homo sapiens, UniProt Q92564)
UNIT_SPEC: %
% engagement DCUN1D4_C219: 33.5

P: C=CC(=O)N1C[C@H](c2ccc(Br)cc2)[C@H]1C(=O)Nc1cccc2cccnc12 [MY-3B]
Q: C=CC(=O)N1C[C@@H](c2ccc(Br)cc2)[C@H]1C(=O)Nc1cccc2cccnc12
R: C=CC(=O)N1C[C@H](c2ccc(Br)cc2)[C@@H]1C(=O)Nc1cccc2cccnc12
-- ask // ascending sort on recorded % engagement DCUN1D4_C219 Present the labels in the sequence the task asks for.
-- reply P, Q, R
(P: −17%, Q: 45.5%, R: 82.5%)
